Measured Caco2 Papp (10^-6 cm/sec), listed per entry.
# Test system: Caco-2 cells
# assay.info: Membrane permeability test using Caco-2 cells with preincubation
# Type: in vitro ADME
# settings: Caco-2 cells, preincubation 20 to 24 hours; apical FaSSIF/HBSS 1% DMSO pH 6.0, basal HBSS 4% BSA pH 7.4; basal sample at 180 minutes
Starred links: 1 amine or outer side, 2 acyl side, 3 side chain; linkers in the order of their positions; H or OH if unused. Positions of bridges follow the written chain, without caps; N, C: chain ends. Non-standard residues stand in square brackets, D forms with d. Residues, ends and D or L forms follow the SMILES beside them. *: point of attachment. NMeF = CN[C@@H](Cc1ccccc1)C(=O)O; NMeI = CC[C@H](C)[C@H](NC)C(=O)O; NMeβAla = CN(CCC(=O)[*:2])[*:1]; NMeD = CN[C@@H](CC(=O)O)C(=O)O; NMeL = CN[C@@H](CC(C)C)C(=O)O; NMeV = CN[C@H](C(=O)O)C(C)C; d(β3hA) = C[C@@H](N)CC(=O)O; NMeAbu = CC[C@H](NC)C(=O)O; NMeA = CN[C@@H](C)C(=O)O; Piperidide = C1CCN(*)CC1; βAla = NCCC(=O)O; Sar = CNCC(=O)O; tBu = CC(C)(C)*

Exam item: For CC[C@H](C)[C@@H]1NC(=O)[C@H](CC(C)C)N(C)C(=O)[C@H](CC(C)C)NC(=O)[C@H](C)N(C)C(=O)C[C@@H](C)NC(=O)CN(C)C(=O)[C@H](CC(C)C)N(C)C(=O)[C@H]([C@@H](C)O)NC(=O)[C@H](C(C)C)NC(=O)[C@H]([C@@H](C)CC)N(C)C(=O)[C@H](COC(C)(C)C)NC(=O)[C@H](CC(C)C)N(C)C(=O)[C@H](C)NC(=O)[C@H](Cc2ccccc2)N(C)C1=O [pd009] (cyclo(A[NMeL]S(tBu)[NMeI]VT[NMeL][Sar][d(β3hA)][NMeA]L[NMeL]I[NMeF])) , what is its reported Caco2 Papp (10^-6 cm/sec)?
Marked response: 0.13 10^-6 cm/sec

Exam item: Another compound to look at: CC(C)C[C@@H]1NC(=O)[C@@H]2CCCN2C(=O)[C@H](C(C)C)N(C)C(=O)[C@H](C)NC(=O)[C@H](CC(C)C)N(C)C(=O)[C@@H](C(C)C)NC(=O)C[C@@H](C(=O)N2CCCCC2)NC(=O)[C@H](C(C)C)N(C)C(=O)[C@H](C)NC(=O)[C@H](CC(C)C)N(C)C(=O)[C@H](C(C)C)NC(=O)[C@H](COC(C)(C)C)NC(=O)[C@H](CC(C)C)N(C)C(=O)[C@H](Cc2ccccc2)N(C)C1=O [pd014] ([dV][NMeL]A[NMeV]PL[NMeF][NMeL]S(tBu)V[NMeL]A[NMeV]D-Piperidide; lactam N-14)
Marked response: <0.11 10^-6 cm/sec

Exam item: Thanks! And CC[C@H]1C(=O)N(C)CC(=O)N(C)[C@@H](CC(C)C)C(=O)N[C@@H](COC(C)(C)C)C(=O)N(C)[C@@H](C)C(=O)N(C)[C@@H](Cc2ccccc2)C(=O)N(C)CC(=O)N(C)[C@H](C(=O)N2CCCCC2)CC(=O)N[C@H](C(C)C)C(=O)N(C)[C@@H](Cc2ccccc2)C(=O)NCCC(=O)N(C)[C@@H](C(C)C)C(=O)N[C@@H]([C@@H](C)O)C(=O)N(C)[C@@H](CC(C)C)C(=O)N1C [pd094] ([dV][NMeF][βAla][NMeV]T[NMeL][NMeAbu][Sar][NMeL]S(tBu)[NMeA][NMeF][Sar][NMeD]-Piperidide; lactam N-14) ?
Marked response: <0.13 10^-6 cm/sec

Exam item: What do you get for CC[C@H](C)[C@@H]1NC(=O)[C@H](C)N(C)C(=O)[C@H]([C@@H](C)O)NC(=O)[C@H](Cc2ccccc2)N(C)C(=O)[C@H](COC(C)(C)C)NC(=O)[C@H](CC(C)C)N(C)C(=O)[C@H](C(C)C)NC(=O)CN(C)C(=O)[C@H](Cc2ccccc2)N(C)C(=O)[C@H]([C@@H](C)CC)NC(=O)[C@H](CC(C)C)N(C)C(=O)CCN(C)C(=O)C[C@@H](C(=O)N2CCCCC2)NC(=O)[C@H](CC(C)C)N(C)C1=O [pd034] ([NMeβAla][NMeL]I[NMeF][Sar]V[NMeL]S(tBu)[NMeF]T[NMeA]I[NMeL]D-Piperidide; lactam N-14) ?
Marked response: 0.27 10^-6 cm/sec
